Values from ChEMBL document CHEMBL1146033

System: PC-3
assay.comment: Antiproliferative activity against human PC3 cell line by MTT assay
Type: functional
property.label: GI50 (µM)

Worked cases, answers included:
Cc1ccc(S(=O)(=O)N2CCC[C@@H]2C(=O)NC(C=O)Cc2ccccc2)cc1 (stereo not given in full): 40.1
Cc1ccc(S(=O)(=O)N2CSC[C@@H]2C(=O)NC(C=O)Cc2ccccc2)cc1 (stereo not given in full): 5.17
COc1ccc(S(=O)(=O)N2CCC[C@@H]2C(=O)NC(Cc2ccccc2)C(=O)C(=O)NCCc2ccccc2)cc1 (mixture of isomers): 14.6
O=CC(Cc1ccccc1)NC(=O)[C@H]1CCCN1S(=O)(=O)c1ccc([N+](=O)[O-])cc1 (stereo not given in full): 49.3

(P) COc1ccc(S(=O)(=O)N2CCC[C@@H]2C(=O)NC(C=O)Cc2ccccc2)cc1 (mixture of isomers)
(Q) O=CC(Cc1ccccc1)NC(=O)[C@H]1CSCN1S(=O)(=O)c1ccc(F)cc1 (mixture of isomers)
Task: // compare: P vs Q , metric GI50, want the smaller API: response body contains the label of the selected item.
Output: Q
(Q: 7.04 µM, P: 19.7 µM)

(P) Cc1ccc(S(=O)(=O)N2CCC[C@@H]2C(=O)NC(Cc2ccccc2)C(=O)C(=O)NCCc2ccccc2)cc1 (mixture of isomers)
(Q) O=CC(Cc1ccccc1)NC(=O)[C@H]1CSCN1S(=O)(=O)c1ccc(I)cc1 (mixture of isomers)
Task: Quick one: lower GI50, P or Q ? Returns: label corresponding to the selected item.
Output: Q
(Q: 6.38 µM, P: 20.8 µM)

====

assay.comment: Selectivity ratio, Ki for human cathepsin B/Ki for porcine mu calpain
property.label: Selectivity ratio

O=CC(Cc1ccccc1)NC(=O)[C@H]1CSCN1S(=O)(=O)c1ccc(Cl)cc1 (mixture of isomers): 2.5

(a) O=CC(Cc1ccccc1)NC(=O)[C@H]1CCCN1S(=O)(=O)c1ccc(I)cc1 (mixture of isomers)
(b) O=CC(Cc1ccccc1)NC(=O)[C@H]1CCCN1S(=O)(=O)c1cccc([N+](=O)[O-])c1 (mixture of isomers)
Task: Selectivity ratio comparison. Which is larger, a or b ? // caller expects the label of the chosen entry
Output: a
(a: 131, b: 21.3)
